A collection of compounds and their measured pIC50
molecular target: GSK3b (GST-full length GSK3b) (Homo sapiens (Human)); experiment: GSK3b TR-FRET kinase assay; assay type: biochemical; details: 1 nM GSK3b, 2 μM ATP, 30 minute preincubation, Table 16; read-out: GSK3-B TR-FRET BIOCHEMICAL (TR-FRET)
Sequence (P49841 whole entry): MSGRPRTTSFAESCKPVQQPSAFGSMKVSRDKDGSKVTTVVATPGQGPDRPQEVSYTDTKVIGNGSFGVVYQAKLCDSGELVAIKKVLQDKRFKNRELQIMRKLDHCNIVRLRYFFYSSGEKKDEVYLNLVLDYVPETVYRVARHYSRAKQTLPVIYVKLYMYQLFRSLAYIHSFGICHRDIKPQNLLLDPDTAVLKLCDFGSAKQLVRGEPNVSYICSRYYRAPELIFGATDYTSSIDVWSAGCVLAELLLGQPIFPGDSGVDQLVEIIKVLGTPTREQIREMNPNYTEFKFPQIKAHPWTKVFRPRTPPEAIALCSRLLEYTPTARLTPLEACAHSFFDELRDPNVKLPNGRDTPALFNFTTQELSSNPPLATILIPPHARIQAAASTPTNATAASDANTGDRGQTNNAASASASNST
pIC50: −log10 of the molar value.

compound=CC[C@]1(c2ccccc2)C2=C(Nc3n[nH]cc31)[C@H](F)C(C)(C)CC2=O tested_on="GSK3b (GST-full length GSK3b) (Homo sapiens (Human))" result="6.00 to 7.00"
compound=CC1(C)CC(=O)C2=C(C1)Nc1n[nH]cc1C21CCN(S(=O)(=O)C2CC2)CC1 tested_on="GSK3b (GST-full length GSK3b) (Homo sapiens (Human))" result="≥ 7.00"
compound=Cn1ccc(S(=O)(=O)N2CCC3(CC2)C2=C(CC(C)(C)NC2=O)Nc2n[nH]cc23)n1 tested_on="GSK3b (GST-full length GSK3b) (Homo sapiens (Human))" result="≥ 7.00"
compound=C[C@@H]1C[C@@]2(CCO1)C1=C(CC(C)(C)CC1=O)Nc1n[nH]cc12 tested_on="GSK3b (GST-full length GSK3b) (Homo sapiens (Human))" result="6.00 to 7.00"
compound=O=C1CC2(CCC2)CC2=C1C1(CCOCC1)c1c[nH]nc1N2 tested_on="GSK3b (GST-full length GSK3b) (Homo sapiens (Human))" result="6.00 to 7.00"
compound=Cn1nccc1S(=O)(=O)N1CCC2(CC1)C1=C(CC(C)(C)CC1=O)Nc1n[nH]cc12 tested_on="GSK3b (GST-full length GSK3b) (Homo sapiens (Human))" result="≥ 7.00"
compound="CCC1(c2cccc(-c3cnnc(C)c3)c2)C2=C(CC(C)(C)CC2=O)Nc2n[nH]cc21 (stereo not drawn)" tested_on="GSK3b (GST-full length GSK3b) (Homo sapiens (Human))" result="≥ 7.00"
compound="CCC1(c2cccc(-c3ccnn3CCC(C)C)c2)C2=C(CC(C)(C)CC2=O)Nc2n[nH]cc21 (stereo not drawn) [Compound 946096]" tested_on="GSK3b (GST-full length GSK3b) (Homo sapiens (Human))" result="< 5.30"
compound=CC1(C)CC2=C(C(=O)[C@@H]1F)[C@]1(CC[C@H](C(F)(F)F)CC1)c1c[nH]nc1N2 tested_on="GSK3b (GST-full length GSK3b) (Homo sapiens (Human))" result="≥ 7.00"
compound=COCc1cccc(S(=O)(=O)N2CCC3(CC2)C2=C(CC(C)(C)CC2=O)Nc2n[nH]cc23)c1 tested_on="GSK3b (GST-full length GSK3b) (Homo sapiens (Human))" result="≥ 7.00"

Lab note: need pIC50 for C[C@@H]1CCC[C@]2(C1)C1=C(CC(C)(C)CC1=O)Nc1n[nH]cc12 on GSK3b (GST-full length GSK3b) (Homo sapiens (Human)), anyone have it?
≥ 7.00

Lab note: need pIC50 for Cn1nccc1S(=O)(=O)N1CC2(C1)C1=C(CC(C)(C)CC1=O)Nc1n[nH]cc12 on GSK3b (GST-full length GSK3b) (Homo sapiens (Human)), anyone have it?
≥ 7.00

Lab note: need pIC50 for CCC1(c2cccc(-c3cncn3C)c2)C2=C(CC(C)(C)CC2=O)Nc2n[nH]cc21 (stereo not drawn) [Compound 945620] on GSK3b (GST-full length GSK3b) (Homo sapiens (Human)), anyone have it?
5.30 to 6.00

Lab note: need pIC50 for CCOc1ccc(S(=O)(=O)N2CCC3(CC2)C2=C(CC(C)(C)CC2=O)Nc2n[nH]cc23)cc1 on GSK3b (GST-full length GSK3b) (Homo sapiens (Human)), anyone have it?
≥ 7.00

Lab note: need pIC50 for CC1(C)CC2=C(C(=O)C1F)[C@]1(CC[C@H](C(F)(F)F)CC1)c1c[nH]nc1N2 (stereo partly drawn) on GSK3b (GST-full length GSK3b) (Homo sapiens (Human)), anyone have it?
≥ 7.00

Lab note: need pIC50 for Cn1ccc(S(=O)(=O)N2CC[C@@]3(C2)C2=C(CC(C)(C)CC2=O)Nc2n[nH]cc23)n1 on GSK3b (GST-full length GSK3b) (Homo sapiens (Human)), anyone have it?
≥ 7.00

Lab note: need pIC50 for CC[C@]1(c2ccccc2)C2=C(Nc3n[nH]cc31)[C@H]1CC[C@H](C1)C2=O on GSK3b (GST-full length GSK3b) (Homo sapiens (Human)), anyone have it?
6.00 to 7.00
